- System: A549
- protocol-details: Antiproliferative activity against human A549 cells assessed as cell growth inhibition
- Format: functional, cell-based
readout-type: pIC50
Please express pIC50 as -log10 of the molar concentration.

-- ask Provide only the value of recorded pIC50 for CC1=C(O)C(=O)C=C2C1=CC=C1[C@@]2(C)CC[C@@]2(C)[C@@H]3C[C@](C)(C(=O)O)CC[C@]3(C)CC[C@]12C [CELASTROL]
-- reply 5.70

====

- protocol-details: Toxicity in wild-type Zebrafish embryos assessed as lethal effect
- Parameters: species or system Danio rerio
- reported-conditions: in vivo
readout-type: LC50 (nM)
The figure you give is taken to be in nM; do not add the unit.

-- ask Please report the measured LC50 for CC1=C(O)C(=O)C=C2C1=CC=C1[C@@]2(C)CC[C@@]2(C)[C@@H]3C[C@](C)(C(=O)O)CC[C@]3(C)CC[C@]12C [CELASTROL]
-- reply 1400

====

- protocol-details: Antiproliferative activity against human 95-D cells assessed as cell growth inhibition
- Format: functional, cell-based
readout-type: IC50 (nM)
Please give a number only; it is taken to be in nM.

-- ask Supply reported IC50 belonging to this compound: CC1=C(O)C(=O)C=C2C1=CC=C1[C@@]2(C)CC[C@@]2(C)[C@@H]3C[C@](C)(C(=O)O)CC[C@]3(C)CC[C@]12C
-- reply 1800

====

- protocol-details: Antiproliferative activity against human YCC-2 cells assessed as cell growth inhibition
- Assay type: functional, cell-based
readout-type: pIC50
pIC50 is defined as minus the log10 of a concentration measured in mol/L.

-- ask Please indicate pIC50 recorded for CC1=C(O)C(=O)C=C2C1=CC=C1[C@@]2(C)CC[C@@]2(C)[C@@H]3C[C@](C)(C(=O)O)CC[C@]3(C)CC[C@]12C
-- reply 6.30

====

- protocol-details: Antiproliferative activity against human SPCA1 cells assessed as cell growth inhibition
- Type: functional, cell-based
readout-type: pIC50
The value called pIC50 is obtained by taking minus log10 of the concentration in mol/L.

-- ask Item CC1=C(O)C(=O)C=C2C1=CC=C1[C@@]2(C)CC[C@@]2(C)[C@@H]3C[C@](C)(C(=O)O)CC[C@]3(C)CC[C@]12C : provide pIC50
-- reply 5.74

====

- protocol-details: Antiproliferative activity against human GLC-82 cells assessed as cell growth inhibition
- Type: functional, cell-based
- reported-conditions: GLC82
readout-type: IC50 (nM)
The answer is to be given in nM; state only the numeric part.

-- ask Using known records, supply IC50 for CC1=C(O)C(=O)C=C2C1=CC=C1[C@@]2(C)CC[C@@]2(C)[C@@H]3C[C@](C)(C(=O)O)CC[C@]3(C)CC[C@]12C
-- reply 1080

====

- System: MDA-MB-231
- protocol-details: Antiproliferative activity against human MDA-MB-231 cells assessed as cell growth inhibition
- Format: functional, cell-based
readout-type: IC50 (nM)
Numbers only; they are read as nM.

-- ask Give the measured IC50 for CC1=C(O)C(=O)C=C2C1=CC=C1[C@@]2(C)CC[C@@]2(C)[C@@H]3C[C@](C)(C(=O)O)CC[C@]3(C)CC[C@]12C [CELASTROL]
-- reply 670

====

- Test system: UMSCC1
- protocol-details: Antiproliferative activity against human UMSCC1 cells assessed as cell growth inhibition
- Assay type: functional, cell-based
readout-type: IC50 (nM)
Give your result in nM as a bare value.

-- ask Return IC50 for the following molecule: CC1=C(O)C(=O)C=C2C1=CC=C1[C@@]2(C)CC[C@@]2(C)[C@@H]3C[C@](C)(C(=O)O)CC[C@]3(C)CC[C@]12C [CELASTROL]
-- reply 760
